Tested on: Candida albicans
Conditions: Concentration 32 ug.mL-1; ASSAY_TEST Inhibition of Fungal Growth; detection method Absorption (OD530)
Description: Antifungal activity against Candida albicans ATCC 90028 (CO-ADD:FG_001); MIC in YNB media using NBS plates, by OD630
Potency and affinity values are given separately.
measurement name: Inhibition (%)
Write it as a number; the unit % goes unstated.

{"compound": "Cc1cc(C)cc(N(Cc2ccccc2F)S(=O)(=O)c2cccn3c(C)nnc23)c1", "subject of test": "Candida albicans", "measurement name": "Inhibition", "result number": 1.9}
{"compound": "Cc1cccc(C)c1NC(=O)Cn1nc2c(N3CCSCC3)nc3ccccc3n2c1=O", "subject of test": "Candida albicans", "measurement name": "Inhibition", "result number": 2.93}
{"compound": "CCOc1ccc(-n2ccn3c(SCC(=O)NCc4ccc(Cl)cc4)nnc3c2=O)cc1", "subject of test": "Candida albicans", "measurement name": "Inhibition", "result number": 0.49}

Exercise: Form field - read-out: Inhibition; system: Candida albicans; submitted item: `Cc1ccc(Sc2nccn3c(=O)n(CC(=O)N4CCN(c5ccc(F)cc5)CC4)nc23)c(C)c1`
Key: 1.39

Exercise: Form field - read-out: Inhibition; system: Candida albicans; submitted item: `Cc1ccc(-c2cc3c4nn(CC(=O)Nc5ccc(Br)cc5)c(=O)n4ccn3n2)cc1C`
Key: 9.45

Exercise: Form field - read-out: Inhibition; system: Candida albicans; submitted item: `CCc1nnc2c(S(=O)(=O)N(Cc3ccc(OC)c(F)c3)c3ccccc3)cccn12`
Key: -1.05

Exercise: Form field - read-out: Inhibition; system: Candida albicans; submitted item: `O=C(Cn1nc2c(N3CCOCC3)nccn2c1=O)NCc1cc(F)cc(F)c1`
Key: 4.54

Exercise: Form field - read-out: Inhibition; system: Candida albicans; submitted item: `COC(=O)c1ccc(NC(=O)Cn2c(=O)c3nnc(C(C)C)n3c3ccccc32)cc1`
Key: -0.03

Exercise: Form field - read-out: Inhibition; system: Candida albicans; submitted item: `Cc1ccc(-c2ccc3nn(CC(=O)Nc4ccc(Br)cc4F)c(=O)n3n2)cc1`
Key: 3.52

###

System: Candida albicans
Conditions: Concentration 32 ug.mL-1; ASSAY_TEST Inhibition of Fungal Growth; detection method Absorption (OD530)
Entries with a potency or affinity are not part of this list.
Listing of recorded Inhibition by entry.
Write it as a number; the unit % goes unstated.

Recorded Inhibition, per entry:
{"sample smiles": "COC(=O)c1cccc(NC(=O)Cn2nc3c(SCc4ccc(Cl)cc4)nccn3c2=O)c1", "quantity unit": "%", "Inhibition": 27.78}
{"sample smiles": "O=C(Cn1nc2c(SC3CCCCC3)nccn2c1=O)Nc1ccccc1F", "quantity unit": "%", "Inhibition": 0.33}
{"sample smiles": "COc1cccc(-n2ccn3c(SCc4c(F)cccc4Cl)nnc3c2=O)c1", "quantity unit": "%", "Inhibition": 2.64}
{"sample smiles": "Cc1cc(C)cc(Nc2nc(C)cc3nn(CC(=O)Nc4ccc(F)cc4F)c(=O)n23)c1", "quantity unit": "%", "Inhibition": 32.59}
{"sample smiles": "COC(=O)c1sccc1NC(=O)Cn1nc2c(Oc3ccc(C)cc3)nc3ccccc3n2c1=O", "quantity unit": "%", "Inhibition": 3.6}
{"sample smiles": "COc1cccc(Oc2nccn3c(=O)n(CC(=O)Nc4ccc(Br)cc4F)nc23)c1", "quantity unit": "%", "Inhibition": 0.55}

Exercise: Form field - read-out: Inhibition; system: Candida albicans; submitted item: `COc1ccc(-c2cc3c4nn(CC(=O)Nc5cc(C)ccc5C)c(=O)n4ccn3n2)cc1`
Key: 0.97

Exercise: Form field - read-out: Inhibition; system: Candida albicans; submitted item: `CCOC(=O)c1ccccc1NC(=O)CSc1nnc2ccc(C(=O)Nc3cccc(F)c3)cn12`
Key: 0.61

Exercise: Form field - read-out: Inhibition; system: Candida albicans; submitted item: `Cc1ccc(-c2cc3c4nn(CC(=O)Nc5ccc(Cl)cc5)c(=O)n4ccn3n2)cc1C`
Key: 11.19

Exercise: Form field - read-out: Inhibition; system: Candida albicans; submitted item: `CSc1cccc(NC(=O)Cn2nc3c(Oc4ccccc4C)nccn3c2=O)c1`
Key: -0.96

Exercise: Form field - read-out: Inhibition; system: Candida albicans; submitted item: `COc1ccc(OC)c(NC(=O)Cn2nc3c4cc(-c5ccc(F)cc5)nn4ccn3c2=O)c1`
Key: 3.04

Exercise: Form field - read-out: Inhibition; system: Candida albicans; submitted item: `Cc1ccc(-c2cc3c4nn(CC(=O)NCc5ccc(Cl)cc5)c(=O)n4ccn3n2)cc1C`
Key: 2

###

Test system: Candida albicans
Conditions: Concentration 32 ug.mL-1; ASSAY_TEST Inhibition of Fungal Growth; detection method Absorption (OD530)
Results with a measured potency or affinity are listed apart.
Listing of recorded Inhibition by entry.
Write it as a number; the unit % goes unstated.

Recorded Inhibition, per entry:
{"compound": "COc1ccc(NC(=O)Cn2nc3c(Sc4ccccc4)nc4ccccc4n3c2=O)cc1Cl", "Inhibition / %": 1.75}
{"compound": "Cc1c(Cl)cccc1-n1ccn2c(=S)[nH]nc2c1=O", "Inhibition / %": 2.5}
{"compound": "CC(C)(C)Sc1ccc2nn(CC(=O)Nc3ccccc3Cl)c(=O)n2n1", "Inhibition / %": 5.29}
{"compound": "Cc1ccc(NC(=O)CSc2nc3ccccc3n3c(C(C)C)nnc23)c(Cl)c1", "Inhibition / %": 27.99}
{"compound": "Cc1nnc2ccc(S(=O)(=O)N(Cc3ccc(F)cc3)c3ccc4c(c3)OCO4)cn12", "Inhibition / %": 1.73}
{"compound": "COc1ccc(-c2cc3c4nn(CC(=O)Nc5ccc(OC)c(OC)c5)c(=O)n4ccn3n2)cc1", "Inhibition / %": -0.77}

As a next step, examine the compound that follows.
Exercise: Form field - read-out: Inhibition; system: Candida albicans; submitted item: `Cc1ccc(-c2nc(CSc3nc4ccccc4n4c(C(C)C)nnc34)c(C)o2)cc1`
Key: 2.71

###

Test system: Klebsiella pneumoniae
Details: Concentration 32 ug.mL-1;; ASSAY_TEST Inhibition of Bacterial Growth; detection method Absorption (OD600); MEDIA CAMHB; plate type 384well; NBS; CORNING #3640; time 18 hr
Description: Antibacterial activity against Klebsiella pneumoniae MDR ATCC 70063 (CO-ADD:GN_003); MIC in CAMBH media using NBS plates, by OD(600)
Measured potencies and affinities stand elsewhere.
Listing of recorded Inhibition by entry.
Write it as a number; the unit % goes unstated.

Recorded Inhibition, per entry:
{"compound": "CCOC(=O)c1ccccc1NC(=O)CSc1nnc2ccc(C(=O)Nc3cccc(F)c3)cn12", "subject of test": "Klebsiella pneumoniae", "result number": 3.32}
{"compound": "Cc1c(Cl)cccc1NC(=O)Cn1nc2c3c4c(sc3ncn2c1=O)CCCCC4", "subject of test": "Klebsiella pneumoniae", "result number": 9.28}

Exercise: Form field - read-out: Inhibition; system: Klebsiella pneumoniae; submitted item: CC1CCCN(c2nccn3c(=O)n(CC(=O)Nc4ccc(Br)cc4F)nc23)C1 (stereo not given)
Key: 5.81

Exercise: Form field - read-out: Inhibition; system: Klebsiella pneumoniae; submitted item: `COc1ccccc1Cn1c(=O)c2sccc2n2c(=O)n(Cc3cccc(C)c3)nc12`
Key: 9.07

Exercise: Form field - read-out: Inhibition; system: Klebsiella pneumoniae; submitted item: `COc1cccc(N(Cc2ccc(F)cc2)S(=O)(=O)c2ccc3nncn3c2)c1`
Key: -3.46

Exercise: Form field - read-out: Inhibition; system: Klebsiella pneumoniae; submitted item: `Cc1ccc(CNC(=O)Cn2nc3ccc(SCc4ccc(Cl)cc4)nn3c2=O)cc1`
Key: 9.12

Exercise: Form field - read-out: Inhibition; system: Klebsiella pneumoniae; submitted item: `CCc1ccccc1NC(=O)Cn1nc2n(C)c(=O)c3c(c(-c4ccccc4)cn3C)n2c1=O`
Key: 1.01

Exercise: Form field - read-out: Inhibition; system: Klebsiella pneumoniae; submitted item: `Cc1cc(C)cc(NC(=O)Cn2nc3ccc(-c4ccc(C)c(C)c4)nn3c2=O)c1`
Key: 5.54

Exercise: Form field - read-out: Inhibition; system: Klebsiella pneumoniae; submitted item: `Cc1ccc(NC(=O)Cn2nc3c(Sc4cccc(F)c4)nccn3c2=O)cc1F`
Key: 11.17

Exercise: Form field - read-out: Inhibition; system: Klebsiella pneumoniae; submitted item: `CCc1nnc2c(S(=O)(=O)N(Cc3cc(F)cc(F)c3)c3cccc(F)c3)cccn12`
Key: 12.81

###

Listing of recorded Inhibition by entry.
System: Candida albicans
Conditions: Concentration 32 ug.mL-1; ASSAY_TEST Inhibition of Fungal Growth; detection method Absorption (OD530)
Entries with a potency or affinity are not part of this list.
Write it as a number; the unit % goes unstated.

{"sample smiles": "Cc1ccc(-c2cc3c4nn(CC(=O)Nc5ccc(F)cc5Cl)c(=O)n4ccn3n2)cc1", "result number": 1.88}

As a next step, examine the compound that follows.
Exercise: Item under review: `COc1ccc(C)cc1NC(=O)Cn1nc2c(N3CCSCC3)nc3ccccc3n2c1=O` . Reported Inhibition?
Key: -2.66
